tgt: T1, human CD22-ECD-His protein (human, UniProt P20273 20-687)
T1 construct: Recombinant, from HEK293E cells; also called hCD22-ECD-His; human CD22-His protein; not shown: His tag
T1 sequence: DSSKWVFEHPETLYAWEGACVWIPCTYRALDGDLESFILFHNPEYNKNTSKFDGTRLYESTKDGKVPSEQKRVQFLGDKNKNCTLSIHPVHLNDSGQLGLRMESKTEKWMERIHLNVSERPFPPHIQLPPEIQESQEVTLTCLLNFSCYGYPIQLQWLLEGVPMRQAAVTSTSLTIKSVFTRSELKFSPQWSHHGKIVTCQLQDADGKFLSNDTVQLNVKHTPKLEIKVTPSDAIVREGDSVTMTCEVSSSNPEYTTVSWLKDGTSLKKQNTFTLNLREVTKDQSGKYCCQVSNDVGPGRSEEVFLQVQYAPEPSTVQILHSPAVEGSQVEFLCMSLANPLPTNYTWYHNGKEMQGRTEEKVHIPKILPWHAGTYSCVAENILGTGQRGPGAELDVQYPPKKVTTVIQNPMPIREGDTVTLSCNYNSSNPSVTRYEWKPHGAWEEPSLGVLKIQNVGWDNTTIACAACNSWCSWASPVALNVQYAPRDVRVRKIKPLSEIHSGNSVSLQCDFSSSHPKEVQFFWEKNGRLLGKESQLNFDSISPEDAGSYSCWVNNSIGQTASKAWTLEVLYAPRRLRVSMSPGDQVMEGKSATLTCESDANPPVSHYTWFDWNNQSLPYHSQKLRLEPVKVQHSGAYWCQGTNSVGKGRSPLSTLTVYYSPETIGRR
test.summary: SPR (Biacore), antibody captured on Protein A chip, CD22-ECD-His in solution
Answer each item with its documented kon.
Please don't drop the unit; write it after the number.

Q) Can you share its kon? I mean this binder: F1.120.15 (antibody, human IgG1, kappa, V domains shown, Chimeric IgG1 kappa) VH: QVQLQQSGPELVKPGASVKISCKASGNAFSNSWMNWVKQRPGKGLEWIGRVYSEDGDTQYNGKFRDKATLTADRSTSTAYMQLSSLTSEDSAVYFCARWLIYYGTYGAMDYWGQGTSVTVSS VL: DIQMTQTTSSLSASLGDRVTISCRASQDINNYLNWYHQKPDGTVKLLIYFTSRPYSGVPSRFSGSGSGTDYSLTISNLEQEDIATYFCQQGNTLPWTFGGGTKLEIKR
A) 11900 M⁻¹ s⁻¹

Q) # lookup: kon of F2.343.16 (antibody, human IgG1, lambda, V domains shown, Chimeric IgG1 lambda) VH: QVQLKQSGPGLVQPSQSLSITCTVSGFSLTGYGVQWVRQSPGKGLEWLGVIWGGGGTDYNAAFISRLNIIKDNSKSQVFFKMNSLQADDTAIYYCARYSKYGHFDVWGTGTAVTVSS VL: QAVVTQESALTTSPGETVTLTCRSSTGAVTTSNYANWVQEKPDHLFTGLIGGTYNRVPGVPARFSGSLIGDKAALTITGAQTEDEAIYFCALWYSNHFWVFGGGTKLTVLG
A) 20400 M⁻¹ s⁻¹

Values compiled from patent US20240084003A1.
